# Species on record: Rattus norvegicus
# EXPERIMENT SUMMARY: Ratio of binding affinity at [3H]quinuclidinyl benzilate binding on rat brain homogenate to [3H]- Oxotremorine-M binding on rat brain homogenate
# Assay type: functional
Decide by Ratio: equal to or exceeding 20 means Criterion met, less means Criterion not met.

As a guide, the following entries are already answered.
{"COMPOUND": "CC(C)n1nnc(C2=CCCN(C)C2)n1", "GROUP LABEL": "Criterion not met"}
{"COMPOUND": "CCCCCCCn1nnc(C2=CCCN(C)C2)n1", "GROUP LABEL": "Criterion not met"}
{"COMPOUND": "CCCCn1nnc(C2=CCCN(C)C2)n1", "GROUP LABEL": "Criterion not met"}

[ask] Is Ratio at least 20? Consider CCn1ncc(C2=CCCNC2)n1
[reply] Criterion met

[ask] How about this compound: CCCn1nnc(C2=CCCN(C)C2)n1
[reply] Criterion met

[ask] How about this compound: CCCCCCn1nnc(C2=CCCN(C)C2)n1
[reply] Criterion not met

[ask] How about this compound: C=CCn1ncc(C2CCCNC2)n1 (stereo in doubt; (-)-15b)
[reply] Criterion not met
